Listed molecules paired with reported IC50
Biological target: Thrombin (Homo sapiens)
Assay: biochemical
Details: molar concentration inhibiting 50% of TAME hydrolysis; read-out: ID50 thrombin
Value kind: IC50

query_smiles=CN=C(NC)NCc1ccc(C(=O)Oc2ccc3cc(C(=N)N)ccc3c2)o1 endpoint_value="900 nM"
query_smiles=N=C(N)Nc1ccc(C(=O)Oc2ccc3cc(C(=N)N)ccc3c2)o1 endpoint_value="300 nM"
query_smiles=N=C(N)c1ccc2cc(OC(=O)c3ccc(CN4CCN(Cc5ccccc5)CC4)o3)ccc2c1 endpoint_value="2000 nM"
query_smiles=N=C(N)c1ccc2cc(OC(=O)c3ccc(CNC4=NCCN4)o3)ccc2c1 endpoint_value="400 nM"

###

Consider the following pIC50 values measured on Trypsin (Bos taurus, UniProt P00760).
Sequence (P00760 24-246): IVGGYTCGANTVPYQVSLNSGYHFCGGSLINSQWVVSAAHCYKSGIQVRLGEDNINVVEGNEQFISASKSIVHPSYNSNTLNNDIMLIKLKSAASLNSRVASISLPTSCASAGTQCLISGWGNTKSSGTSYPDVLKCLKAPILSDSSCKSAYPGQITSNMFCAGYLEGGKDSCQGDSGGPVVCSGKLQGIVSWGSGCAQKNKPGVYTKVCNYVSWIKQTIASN
pIC50: −log10 of the molar value.
Value kind: pIC50

molecule=CN(C)CC(=O)NCc1ccc(C(=O)Oc2ccc3cc(C(=N)N)ccc3c2)o1 endpoint_value=6.00
molecule=N=C(N)c1ccc2cc(OC(=O)c3ccc(CNC(=O)c4cccnc4)o3)ccc2c1 endpoint_value=6.00
molecule="N=C(N)c1ccc2cc(OC(=O)c3ccc(NC(=O)C4CCC(CN)CC4)o3)ccc2c1 (stereo not drawn)" endpoint_value=6.15
molecule=CN(C)Cc1ccc(C(=O)Oc2ccc3cc(C(=N)N)ccc3c2)o1 endpoint_value=6.30
molecule=N=C(N)c1ccc2cc(OC(=O)c3ccc(CN)s3)ccc2c1 endpoint_value=7.70
molecule=N=C(N)Nc1ccc(C(=O)Oc2ccc3cc(C(=N)N)ccc3c2)o1 endpoint_value=7.00

###

Biological target: C1s (Homo sapiens, UniProt P09871)
Sequence (P09871 438-688 limits assumed): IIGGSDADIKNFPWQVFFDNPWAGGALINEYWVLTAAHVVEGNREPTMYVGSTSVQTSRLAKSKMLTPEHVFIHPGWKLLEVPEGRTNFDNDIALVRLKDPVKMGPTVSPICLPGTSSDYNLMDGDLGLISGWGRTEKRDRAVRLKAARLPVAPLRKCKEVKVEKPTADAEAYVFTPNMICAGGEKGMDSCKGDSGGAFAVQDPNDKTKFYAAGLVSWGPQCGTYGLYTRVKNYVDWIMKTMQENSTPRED
Sequence (P09871 16-437 partner limits assumed): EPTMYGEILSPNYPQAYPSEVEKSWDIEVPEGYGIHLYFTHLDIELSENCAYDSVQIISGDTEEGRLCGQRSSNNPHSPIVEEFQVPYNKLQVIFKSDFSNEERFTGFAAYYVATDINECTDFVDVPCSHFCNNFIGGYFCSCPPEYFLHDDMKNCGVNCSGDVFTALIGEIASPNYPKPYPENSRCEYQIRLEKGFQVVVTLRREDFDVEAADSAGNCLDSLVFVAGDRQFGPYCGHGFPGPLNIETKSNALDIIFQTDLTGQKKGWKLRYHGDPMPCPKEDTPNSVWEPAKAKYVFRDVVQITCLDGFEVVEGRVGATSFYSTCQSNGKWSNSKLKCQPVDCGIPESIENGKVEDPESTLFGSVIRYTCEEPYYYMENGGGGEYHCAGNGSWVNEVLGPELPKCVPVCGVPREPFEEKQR
pIC50: −log10 of the molar value.
Assign met whenever pIC50 does not fall below 6; assign not met whenever it does.

molecule="N=C(N)c1ccc2cc(OC(=O)c3ccc(CNC(=O)C(N)CCCCN)o3)ccc2c1 (centres unmarked)" class_assignment="not met"
molecule=CN(C)Cc1ccc(C(=O)Oc2ccc3cc(C(=N)N)ccc3c2)o1 class_assignment="not met"
molecule=N=C(N)c1ccc2cc(OC(=O)c3ccc(CN4CCN(Cc5ccccc5)CC4)o3)ccc2c1 class_assignment="not met"
molecule=N=C(N)c1ccc2cc(OC(=O)c3ccc(CNC(=O)OCc4ccccc4)o3)ccc2c1 class_assignment=met
molecule=CN(C)CC(=O)NCc1ccc(C(=O)Oc2ccc3cc(C(=N)N)ccc3c2)o1 class_assignment=met
molecule="N=C(N)c1ccc2cc(OC(=O)c3ccc(CNC(=O)C(N)COCc4ccccc4)o3)ccc2c1 (centres unmarked)" class_assignment="not met"
molecule=N=C(N)c1ccc2cc(OC(=O)c3ccc(CN)s3)ccc2c1 class_assignment=met
molecule=N=C(N)c1ccc2cc(OC(=O)c3ccc(CNC(=O)c4cnc5ccccc5c4)o3)ccc2c1 class_assignment="not met"
molecule=CCN=C(NCC)NCc1ccc(C(=O)Oc2ccc3cc(C(=N)N)ccc3c2)o1 class_assignment="not met"
molecule=N=C(N)Nc1ccc(C(=O)Oc2ccc3cc(C(=N)N)ccc3c2)o1 class_assignment=met
molecule=CNC(=N)Nc1ccc(C(=O)Oc2ccc3cc(C(=N)N)ccc3c2)o1 class_assignment=met
molecule=N=C(N)c1ccc2cc(OC(=O)c3ccc(CN)o3)ccc2c1 class_assignment="not met"
molecule=CCNC(=NC)NCc1ccc(C(=O)Oc2ccc3cc(C(=N)N)ccc3c2)o1 class_assignment="not met"
molecule=N=C(N)c1ccc2cc(OC(=O)c3ccc(CNC(=O)CCN)o3)ccc2c1 class_assignment=met
molecule=N=C(N)c1ccc2cc(OC(=O)c3ccc(CNC4=NCCN4)o3)ccc2c1 class_assignment=met

###

Test system: complement
Test: Inhibition of complement mediated hemolysis
Assay type: cell-based
Settings: 1 × 10^-7
The compounds listed here are annotated with their Inhibition of complement mediated hemolysis (%).
Value kind: Inhibition of complement mediated hemolysis (%)

compound="N=C(N)c1ccc2cc(OC(=O)c3ccc(CNC(=O)C4CCC(CN)CC4)o3)ccc2c1 (stereo not drawn)" endpoint_value=98%
compound=N=C(N)NCc1ccc(C(=O)Oc2ccc3cc(C(=N)N)ccc3c2)s1 endpoint_value=35%
compound=N=C(N)c1ccc2cc(OC(=O)c3ccc(NC4=NCCN4)o3)ccc2c1 endpoint_value=91%
compound=CNC(=N)NCc1ccc(C(=O)Oc2ccc3cc(C(=N)N)ccc3c2)o1 endpoint_value=100%
compound=CN(C)CC(=O)NCc1ccc(C(=O)Oc2ccc3cc(C(=N)N)ccc3c2)o1 endpoint_value=28%
compound=N=C(N)NCCc1ccc(C(=O)Oc2ccc3cc(C(=N)N)ccc3c2)o1 endpoint_value=94%

###

Listing of entries alongside the reported IC50.
Target: C1r (Homo sapiens, UniProt P00736)
Sequence (P00736 464-705 limits assumed): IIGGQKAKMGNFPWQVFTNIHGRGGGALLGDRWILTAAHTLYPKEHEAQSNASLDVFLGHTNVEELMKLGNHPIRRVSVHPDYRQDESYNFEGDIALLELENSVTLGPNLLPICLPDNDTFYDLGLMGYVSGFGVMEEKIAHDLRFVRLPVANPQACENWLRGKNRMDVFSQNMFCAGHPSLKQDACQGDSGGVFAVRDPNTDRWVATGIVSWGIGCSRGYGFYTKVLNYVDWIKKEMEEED
Sequence (P00736 18-463 partner limits assumed): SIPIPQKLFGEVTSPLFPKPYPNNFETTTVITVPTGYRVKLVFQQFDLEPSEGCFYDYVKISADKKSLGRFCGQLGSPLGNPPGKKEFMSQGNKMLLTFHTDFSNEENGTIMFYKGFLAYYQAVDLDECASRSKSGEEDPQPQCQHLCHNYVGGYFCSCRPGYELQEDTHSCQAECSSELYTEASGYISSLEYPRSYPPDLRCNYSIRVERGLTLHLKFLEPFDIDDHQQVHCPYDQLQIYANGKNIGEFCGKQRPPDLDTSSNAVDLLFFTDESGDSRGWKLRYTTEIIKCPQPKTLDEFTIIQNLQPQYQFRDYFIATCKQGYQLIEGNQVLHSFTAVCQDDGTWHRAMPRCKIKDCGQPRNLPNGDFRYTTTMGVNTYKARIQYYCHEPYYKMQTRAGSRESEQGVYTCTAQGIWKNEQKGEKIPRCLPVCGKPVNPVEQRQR
Experiment: biochemical
Conditions: molar concentration inhibiting 50% of AAME hydrolysis; read-out: ID50 C1r (Anti-C1 activity)
Value kind: IC50 (nM)

compound="N=C(N)Nc1ccc(C(=O)Oc2ccc3cc(C(=N)N)ccc3c2)o1 [Compound No. 3]" target_entity="C1r (Homo sapiens, UniProt P00736)" measure_unit=nM endpoint_value=700
compound="CN(C(=N)N)c1ccc(C(=O)Oc2ccc3cc(C(=N)N)ccc3c2)o1 [compound 4]" target_entity="C1r (Homo sapiens, UniProt P00736)" measure_unit=nM endpoint_value=2000
compound="N=C(N)c1ccc2cc(OC(=O)c3ccc(CNC(=O)c4cnc5ccccc5c4)o3)ccc2c1 [compound 17]" target_entity="C1r (Homo sapiens, UniProt P00736)" measure_unit=nM endpoint_value=500
compound="N=C(N)c1ccc2cc(OC(=O)c3ccc(CN)o3)ccc2c1 [compound 33]" target_entity="C1r (Homo sapiens, UniProt P00736)" measure_unit=nM endpoint_value=700
compound="CCN=C(NCC)NCc1ccc(C(=O)Oc2ccc3cc(C(=N)N)ccc3c2)o1 [compound 8]" target_entity="C1r (Homo sapiens, UniProt P00736)" measure_unit=nM endpoint_value=800
compound="N=C(N)c1ccc2cc(OC(=O)c3ccc(CN4CCN(Cc5ccccc5)CC4)o3)ccc2c1 [compound 26]" target_entity="C1r (Homo sapiens, UniProt P00736)" measure_unit=nM endpoint_value=500
compound="N=C(N)c1ccc2cc(OC(=O)c3ccc(CNC(=O)c4cccnc4)o3)ccc2c1 [compound 16]" target_entity="C1r (Homo sapiens, UniProt P00736)" measure_unit=nM endpoint_value=400

Reference source: patent US4563527A
